ASSAY SUMMARY: self-splicing fitness, log relative to wild type (ln ratio); higher = more splicing; Tetrahymena group I intron in knt gene, E. coli kanamycin selection, DiMSum; sequences stand for … in CUCUCU…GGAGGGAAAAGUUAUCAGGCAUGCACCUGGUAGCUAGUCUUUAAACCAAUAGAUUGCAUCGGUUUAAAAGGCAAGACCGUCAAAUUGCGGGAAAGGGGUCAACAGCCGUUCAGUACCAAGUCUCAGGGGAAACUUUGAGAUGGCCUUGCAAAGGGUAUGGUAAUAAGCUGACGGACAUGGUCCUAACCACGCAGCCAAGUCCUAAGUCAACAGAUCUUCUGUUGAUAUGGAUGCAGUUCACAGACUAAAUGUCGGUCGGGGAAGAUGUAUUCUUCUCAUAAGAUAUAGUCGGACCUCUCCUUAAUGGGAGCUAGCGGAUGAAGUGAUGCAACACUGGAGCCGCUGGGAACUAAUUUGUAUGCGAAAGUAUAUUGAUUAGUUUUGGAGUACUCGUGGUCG;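 further: selection with 25 µg/mL kanamycin versus none on LB agar overnight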
EXPERIMENTAL CONDITIONS: 30 °C
QUANTITY: self-splicing fitness (ln)

• GAUGAGCAAUAUUACGCGUA = -1.96
• UCACAGCAAUAUUACGCGUU = -4
• GUCCAGCAAUAUUACGUCUC = 0.725
• UUAUAGCAAUAUUACGCGGG = -1.86
• CGGUAGCAAUAUUACGUUUC = -2.48

Suppose we examine the sequence `GAUAAGCAAUAUUACGGGAG` ; what self-splicing fitness (ln) value has been reported?
-4.18

Then what about the sequence `CACCAGCAAUAUUACGUCGU` ?
-3.78
